Assign EC50 to each entry below.
- experiment: NF-kB promoter reporter activators, neuronal cells, dose response, cell-based, SH-SY5Y, luciferase (AID 1241)
- conditions: fold induction

• Cc1cc(C=C2C(=O)c3ccccc3C2=O)c(C)n1C = 2.79 µM

Dear colleague, could you please provide EC50 for the compounds listed below?
1. Cc1ccc(-c2nc(Nc3ccccc3)n[nH]2)cc1
2. Cc1ccc(C(=O)Nc2ccc3c(c2)CCC3)cc1
3. C=CCNc1nc(-c2cc3ccccc3o2)cs1
4. Cc1ccc2oc(-c3cccc(N)c3)nc2c1

Response line:
2.29 µM
0.158 µM
0.598 µM
0.66 µM

Dear colleague, could you please provide EC50 for the compounds listed below?
1. CCc1ccc(NC(=O)c2cc(C)on2)cc1
2. Cc1ccc(Nc2nc(-c3ccc(O)cc3O)cs2)nc1

Response line:
1. 2.86 µM
2. 1.89 µM

---

- experiment: NF-kB promoter reporter activators, neuronal cells, dose response, cell-based, SH-SY5Y, luciferase (AID 1241)
- conditions: fold induction
Assign EC50 to each entry below.

• Oc1ccc(-c2csc(Nc3ncccn3)n2)cc1 = 3440 nM
• Cc1cccc(Nc2nc3ccccc3s2)c1C = 4270 nM
• O=C(CCS(=O)(=O)c1ccccc1)Nc1ccc(-c2nc3ccccc3s2)cc1 = 1140 nM
• COc1cccc(N(C(=O)c2nc3nccc(C)n3n2)c2nc3ccccc3s2)c1 = 7220 nM
• Oc1c(C2=NCCNC(C(F)(F)F)=C2)ccc2ccccc12 = 17700 nM
• COc1ccc(C(=O)Nc2cc(OC)nc(OC)n2)cc1 = 12000 nM
• C/C(=N\N1C(=O)c2ccccc2NC1c1ccco1)c1ccccc1O (stereo not given) = 2500 nM
• CSc1ccc(/C=C/C(=O)Nc2ccccc2)cc1 = 242 nM

Dear colleague, could you please provide EC50 for the molecules listed below?
1. CN(C)c1ccc(NC(=O)Nc2cccc(Cl)c2)cc1
2. Cc1ccc(-c2cn3cccc(C)c3n2)cc1
3. CCC(=O)NC(=Nc1nc2ccccc2s1)NC(=O)CC
4. Cc1ccc(N=Nc2c(N)nn(-c3ccccc3)c2N)cc1
5. O=C(Nc1ccc2ccccc2c1)c1onc2c1CCCC2
6. Nc1ccc(Nc2nc(-c3cc4ccccc4oc3=O)cs2)cc1
7. Cc1ccc(C(=O)c2cc([N+](=O)[O-])ccc2N2CCOCC2)c(C)c1
8. c1ccc2oc(-c3csc(NCC4CCCO4)n3)cc2c1 (stereo not given)

Response line:
1: 3420 nM; 2: 2300 nM; 3: 4450 nM; 4: 10000 nM; 5: 632 nM; 6: 2020 nM; 7: 3030 nM; 8: 2540 nM

---

Assign EC50 to each entry below.
- experiment: NF-kB promoter reporter activators, neuronal cells, dose response, cell-based, SH-SY5Y, luciferase (AID 1241)
- conditions: fold induction

Dear colleague, could you please provide EC50 for the compounds listed below?
1. Clc1ccc(-c2cn3c(n2)-c2ccccc2C3)cc1Cl
2. Cc1ccc(NC(=O)c2scc3c2CCCC3)cc1
3. O=C(CSC(=S)N1CCSCC1)c1ccccc1
4. COc1cccc(C(=O)/C=C/Nc2cc(C)ccc2O)c1
5. CC(C)(C)c1ccc(C(=O)Nc2cccc([N+](=O)[O-])c2)cc1

Response line:
1: 0.861 µM; 2: 0.714 µM; 3: 3.44 µM; 4: 5.51 µM; 5: 15.8 µM

Dear colleague, could you please provide EC50 for the compounds listed below?
1. Cc1occc1C(=O)N/N=C/C(Br)=C/c1ccccc1
2. O=C(/C=C/Nc1ccc(F)c(F)c1)c1cccs1
3. Fc1ccc(-c2nc3n(n2)Cc2ccccc2-3)cc1
4. O=C(/C=C/c1ccccc1Cl)c1ccccc(=O)c1O
5. Cc1ccc(NC(=O)c2ccn(C)n2)c(Br)c1
6. Cc1ccc(C(=O)Nc2ccc3nccnc3c2)cc1
7. O=C(Nc1ccc(OC(F)F)c(Cl)c1)c1ccccn1
8. O=C(Cc1nc(=O)c2ccccc2s1)Nc1ccccc1

Response line:
["1.64 µM", "0.963 µM", "0.125 µM", "8.07 µM", "8.25 µM", "1.11 µM", "6.28 µM", "0.22 µM"]

Dear colleague, could you please provide EC50 for the compounds listed below?
1. COc1cccc(-c2cc(C(=O)N3CCCCCC3)no2)c1
2. Cc1ccc(-n2nnc(-c3cccnc3Cl)n2)cc1

Response line:
1: 1.99 µM; 2: 4.75 µM

Dear colleague, could you please provide EC50 for the compounds listed below?
1. CC(=Nc1cccc(O)c1)c1sc2ccccc2c1O
2. N/C(=N\N=C\c1cccc(O)c1)c1nonc1N
3. CC1CC1C(=O)OCC(=O)Nc1ccc(N=Nc2ccccc2)cc1 (stereo unspecified)
4. Cc1ccc(/C=C/c2nc3ccccc3[nH]2)o1
5. CC(=O)Nc1ccc2oc(-c3cc(F)c(F)cc3Cl)nc2c1
6. CCOc1ccc(NC(=O)c2ccco2)c([N+](=O)[O-])c1
7. Cc1ccc(NC2=Nc3ccccc3CS2)cc1
8. Cc1ccc(NC(=O)c2ccccc2O)cc1

Response line:
1. 2.2 µM
2. 3.31 µM
3. 15.4 µM
4. 2.06 µM
5. 0.817 µM
6. 18.9 µM
7. 1.34 µM
8. 3.23 µM
